Where these numbers come from: the supplement of paper PMC10307832

Each record here notes measured relative viability.
# System: EMC-BAC-2
# Assay method text: relative viability (nuclei count vs DMSO), 5 days (fraction); higher = more cells survive
# Condition description: first compound 0.253 µM

Compound	relative viability
Nc1cccc2c1CN(C1CCC(=O)NC1=O)C2=O (stereo not given) [Lenalidomide] + C[C@]1(O)C[C@@H](c2nc(-c3ccc4ccc(-c5ccccc5)nc4c3)c3c(N)nccn32)C1 [Linsitinib] (partner 1 µM)	0.786
Nc1cccc2c1CN(C1CCC(=O)NC1=O)C2=O (stereo not given) [Lenalidomide] + O=C(CCCCCCC(=O)Nc1ccccc1)NO [Vorinostat] (partner 1 µM)	0.74
Nc1cccc2c1CN(C1CCC(=O)NC1=O)C2=O (stereo not given) [Lenalidomide] + Nc1ncn([C@H]2C[C@H](O)[C@@H](CO)O2)c(=O)n1 [Decitabine] (partner 2 µM)	0.998
Nc1cccc2c1CN(C1CCC(=O)NC1=O)C2=O (stereo not given) [Lenalidomide] + Cc1nc(NC(=O)N2CCC[C@H]2C(N)=O)sc1-c1ccnc(C(C)(C)C(F)(F)F)c1 [Alpelisib] (partner 2 µM)	0.691
Nc1cccc2c1CN(C1CCC(=O)NC1=O)C2=O (stereo not given) [Lenalidomide] + COc1cccc2cc(-c3nc([C@H]4CC[C@H](C(=O)O)CC4)n4ncnc(N)c34)[nH]c12 [OSI-027] (partner 0.5 µM)	0.38

###

# System: HCC-366
# Assay method text: relative viability (nuclei count vs DMSO), 5 days (fraction); higher = more cells survive
# Condition description: first compound 8 µM

Compound	relative viability
Nc1cccc2c1CN(C1CCC(=O)NC1=O)C2=O (stereo not given) [Lenalidomide] + O=C(CCCCCCC(=O)Nc1ccccc1)NO [Vorinostat] (partner 1 µM)	0.265
Nc1cccc2c1CN(C1CCC(=O)NC1=O)C2=O (stereo not given) [Lenalidomide] + CC(=O)c1c(C)c2cnc(Nc3ccc(N4CCNCC4)cn3)nc2n(C2CCCC2)c1=O [Palbociclib] (partner 0.5 µM)	0.353
Nc1cccc2c1CN(C1CCC(=O)NC1=O)C2=O (stereo not given) [Lenalidomide] + CS(=O)(=O)N1CCN(Cc2cc3nc(-c4cccc5[nH]ncc45)nc(N4CCOCC4)c3s2)CC1 [Pictilisib] (partner 1 µM)	0.157
Nc1cccc2c1CN(C1CCC(=O)NC1=O)C2=O (stereo not given) [Lenalidomide] + CC(=O)Nc1cccc(-n2c(=O)n(C3CC3)c(=O)c3c(Nc4ccc(I)cc4F)n(C)c(=O)c(C)c32)c1 [Trametinib] (partner 0.02 µM)	0.264
Nc1cccc2c1CN(C1CCC(=O)NC1=O)C2=O (stereo not given) [Lenalidomide] + N=C(N)NC(=N)NCCc1ccccc1 [Phenformin] (partner 250 µM)	0.548

###

Each record here notes measured relative viability.
# System: Calu-6
# Assay method text: relative viability (nuclei count vs DMSO), 5 days (fraction); higher = more cells survive
# Condition description: first compound 0.8 µM

Compound	Assayed system	relative viability
Nc1cccc2c1CN(C1CCC(=O)NC1=O)C2=O (centres undefined) [Lenalidomide] + O=C(c1cc(Cc2n[nH]c(=O)c3ccccc23)ccc1F)N1CCN(C(=O)C2CC2)CC1 [Olaparib] (partner 8 µM)	Calu-6	0.591
Nc1cccc2c1CN(C1CCC(=O)NC1=O)C2=O (centres undefined) [Lenalidomide] + COc1cc2c(Oc3ccc(NC(=O)C4(C(=O)Nc5ccc(F)cc5)CC4)cc3F)ccnc2cc1OCCCN1CCOCC1 [Foretinib] (partner 0.25 µM)	Calu-6	0.889
Nc1cccc2c1CN(C1CCC(=O)NC1=O)C2=O (centres undefined) [Lenalidomide] + C[C@@H](Oc1cc(-c2cnn(C3CCNCC3)c2)cnc1N)c1c(Cl)ccc(F)c1Cl [Crizotinib] (partner 1 µM)	Calu-6	0.825
Nc1cccc2c1CN(C1CCC(=O)NC1=O)C2=O (centres undefined) [Lenalidomide] + CC(C)C[C@H](NC(=O)[C@H](Cc1ccccc1)NC(=O)c1cnccn1)B(O)O [Bortezomib] (partner 0.002 µM)	Calu-6	1.01

###

# System: NCI-H1666
# Assay method text: relative viability (nuclei count vs DMSO), 5 days (fraction); higher = more cells survive
# Condition description: first compound 0.02 µM

Molecule	Assayed system	relative viability
CCNC(=O)c1noc(-c2cc(C(C)C)c(O)cc2O)c1-c1ccc(CN2CCOCC2)cc1 [Luminespib] + O=C(CCCCCCC(=O)Nc1ccccc1)NO [Vorinostat] (partner 1 µM)	NCI-H1666	1.19
CN1CCN(CCOc2cc(OC3CCOCC3)c3c(Nc4c(Cl)ccc5c4OCO5)ncnc3c2)CC1 [Saracatinib] + COc1cc2c(Oc3ccc(NC(=O)C4(C(=O)Nc5ccc(F)cc5)CC4)cc3F)ccnc2cc1OCCCN1CCOCC1 [Foretinib] (partner 0.25 µM)	NCI-H1666	1.04
CN1CCN(CCOc2cc(OC3CCOCC3)c3c(Nc4c(Cl)ccc5c4OCO5)ncnc3c2)CC1 [Saracatinib] + Cc1nc(NC(=O)N2CCC[C@H]2C(N)=O)sc1-c1ccnc(C(C)(C)C(F)(F)F)c1 [Alpelisib] (partner 2 µM)	NCI-H1666	1.22
CN1CCN(CCOc2cc(OC3CCOCC3)c3c(Nc4c(Cl)ccc5c4OCO5)ncnc3c2)CC1 [Saracatinib] + CS(=O)(=O)CCNCc1ccc(-c2ccc3ncnc(Nc4ccc(OCc5cccc(F)c5)c(Cl)c4)c3c2)o1 [Lapatinib] (partner 2 µM)	NCI-H1666	0.686

###

Each record here notes measured relative viability.
# Tested on: SW 900
# Assay method text: relative viability (nuclei count vs DMSO), 5 days (fraction); higher = more cells survive
# Condition description: first compound 0.6325 µM
Measured endpoint: relative viability

Compound	Assayed system	Measured endpoint	Result
CN1CCN(CCOc2cc(OC3CCOCC3)c3c(Nc4c(Cl)ccc5c4OCO5)ncnc3c2)CC1 [Saracatinib] + O=C(CCCCCCC(=O)Nc1ccccc1)NO [Vorinostat] (partner 1 µM)	SW 900	relative viability	0.676
Cc1csc(=NC2CCCCC2)n1/N=C/c1ccc(O)c(O)c1O [MIM1] + Nc1nc2[nH]cc(CCc3ccc(C(=O)N[C@@H](CCC(=O)O)C(=O)O)cc3)c2c(=O)[nH]1 [Pemetrexed] (partner 0.2 µM)	SW 900	relative viability	0.465
Cc1csc(=NC2CCCCC2)n1/N=C/c1ccc(O)c(O)c1O [MIM1] + CCNC(=O)c1noc(-c2cc(C(C)C)c(O)cc2O)c1-c1ccc(CN2CCOCC2)cc1 [Luminespib] (partner 0.01 µM)	SW 900	relative viability	0.199

###

Each record here notes measured relative viability.
# Tested on: NCI-H358
# Assay method text: relative viability (nuclei count vs DMSO), 5 days (fraction); higher = more cells survive
# Condition description: first compound 0.06325 µM
Measured endpoint: relative viability

Compound	Result
CCNC(=O)c1noc(-c2cc(C(C)C)c(O)cc2O)c1-c1ccc(CN2CCOCC2)cc1 [Luminespib] + Cc1nc(NC(=O)N2CCC[C@H]2C(N)=O)sc1-c1ccnc(C(C)(C)C(F)(F)F)c1 [Alpelisib] (partner 2 µM)	0.117
CCNC(=O)c1noc(-c2cc(C(C)C)c(O)cc2O)c1-c1ccc(CN2CCOCC2)cc1 [Luminespib] + N=C(N)NC(=N)NCCc1ccccc1 [Phenformin] (partner 250 µM)	0.0546
CCNC(=O)c1noc(-c2cc(C(C)C)c(O)cc2O)c1-c1ccc(CN2CCOCC2)cc1 [Luminespib] + Nc1nc2[nH]cc(CCc3ccc(C(=O)N[C@@H](CCC(=O)O)C(=O)O)cc3)c2c(=O)[nH]1 [Pemetrexed] (partner 0.2 µM)	0.147
CCNC(=O)c1noc(-c2cc(C(C)C)c(O)cc2O)c1-c1ccc(CN2CCOCC2)cc1 [Luminespib] + C[C@]1(O)C[C@@H](c2nc(-c3ccc4ccc(-c5ccccc5)nc4c3)c3c(N)nccn32)C1 [Linsitinib] (partner 1 µM)	0.129
CCNC(=O)c1noc(-c2cc(C(C)C)c(O)cc2O)c1-c1ccc(CN2CCOCC2)cc1 [Luminespib] + CC(=O)c1c(C)c2cnc(Nc3ccc(N4CCNCC4)cn3)nc2n(C2CCCC2)c1=O [Palbociclib] (partner 0.5 µM)	0.0751
CCNC(=O)c1noc(-c2cc(C(C)C)c(O)cc2O)c1-c1ccc(CN2CCOCC2)cc1 [Luminespib] + Cc1nc(Nc2ncc(C(=O)Nc3c(C)cccc3Cl)s2)cc(N2CCN(CCO)CC2)n1 [Dasatinib] (partner 0.075 µM)	0.0558

###

Each record here notes measured relative viability.
# Tested on: NCI-H23
# Assay method text: relative viability (nuclei count vs DMSO), 5 days (fraction); higher = more cells survive
# Condition description: first compound 0.02 µM
Measured endpoint: relative viability

Molecule	Measured endpoint	Result
CCNC(=O)c1noc(-c2cc(C(C)C)c(O)cc2O)c1-c1ccc(CN2CCOCC2)cc1 [Luminespib] + N=C(N)NC(=N)NCCc1ccccc1 [Phenformin] (partner 250 µM)	relative viability	0.611
CN1CCN(CCOc2cc(OC3CCOCC3)c3c(Nc4c(Cl)ccc5c4OCO5)ncnc3c2)CC1 [Saracatinib] + CC(C)C[C@H](NC(=O)[C@H](Cc1ccccc1)NC(=O)c1cnccn1)B(O)O [Bortezomib] (partner 0.002 µM)	relative viability	1.09
CCNC(=O)c1noc(-c2cc(C(C)C)c(O)cc2O)c1-c1ccc(CN2CCOCC2)cc1 [Luminespib] + Cc1nc(Nc2ncc(C(=O)Nc3c(C)cccc3Cl)s2)cc(N2CCN(CCO)CC2)n1 [Dasatinib] (partner 0.075 µM)	relative viability	0.517
CN1CCN(CCOc2cc(OC3CCOCC3)c3c(Nc4c(Cl)ccc5c4OCO5)ncnc3c2)CC1 [Saracatinib] + CC(=O)c1c(C)c2cnc(Nc3ccc(N4CCNCC4)cn3)nc2n(C2CCCC2)c1=O [Palbociclib] (partner 0.5 µM)	relative viability	0.526
CCNC(=O)c1noc(-c2cc(C(C)C)c(O)cc2O)c1-c1ccc(CN2CCOCC2)cc1 [Luminespib] + C[C@@H](Oc1cc(-c2cnn(C3CCNCC3)c2)cnc1N)c1c(Cl)ccc(F)c1Cl [Crizotinib] (partner 1 µM)	relative viability	0.445
CCNC(=O)c1noc(-c2cc(C(C)C)c(O)cc2O)c1-c1ccc(CN2CCOCC2)cc1 [Luminespib] + Nc1ncn([C@H]2C[C@H](O)[C@@H](CO)O2)c(=O)n1 [Decitabine] (partner 2 µM)	relative viability	0.265
